experiment: physchem; settings: aqueous with cosolvent or surfactant or cyclodextrin, concentration at which soluble and formulation clear
Recorded endpoint: solubility (mg/mL)
Answers are plain numbers, in mg/mL.

Notebook: CC(=O)Oc1ccccc1C(=O)O [N-acetylsalicylic acid] , solubility read as 18

---

assay: Solubilization of compounds in fatty acid / fatty acid salt (soluble, formulation clear); details: aqueous with cosolvent or surfactant or cyclodextrin, concentration at which soluble and formulation clear, oleic acid, then ethanolamine, dispersed in water for injection
Recorded endpoint: solubility (µg/mL)
One number for each entry, in µg/mL.

Notebook: `C[C@H]1O[C@@H](O[C@H]2[C@@H](O)C[C@H](O[C@H]3[C@@H](O)C[C@H](O[C@H]4CC[C@@]5(C)[C@H](CC[C@@H]6[C@@H]5C[C@@H](O)[C@]5(C)[C@@H](C7=CC(=O)OC7)CC[C@]65O)C4)O[C@@H]3C)O[C@@H]2C)C[C@H](O)[C@@H]1O` , solubility read as 1000

---

assay: physchem; details: aqueous with cosolvent or surfactant or cyclodextrin, solubilization
Recorded endpoint: solubility

Notebook: CC(=O)O[C@H]1C(=O)[C@@]2(C)[C@H]([C@H](OC(=O)c3ccccc3)[C@]3(O)C[C@H](OC(=O)[C@H](O)[C@@H](NC(=O)c4ccccc4)c4ccccc4)C(C)=C1C3(C)C)[C@]1(OC(C)=O)CO[C@@H]1C[C@@H]2O [Paclitaxel] , solubility read as 6300 to 8500 µg/mL
